Test system: rodent lifetime carcinogenesis bioassay, tumor incidence TD50
Experiment: carcinogenic potency in animals, long-term in vivo studies, CPDB compilation (AID 1745844)
Details: rat; strain Donryu; females; in drinking water; site: forestomach; lesion: papilloma; dosed 52 weeks; study length 60 weeks
attribute_measured: TD50 (mg/kg/day)
Give the value, in units of mg/kg/day, as a plain number.

Read off the recorded TD50 for CCCCCN(N=O)C(=O)OCC 1.54

====

Test system: rodent lifetime carcinogenesis bioassay, tumor incidence TD50
Assay: carcinogenic potency in animals, long-term in vivo studies, CPDB compilation (AID 1745844)
Details: rat; strain Wistar; males; in feed; site: liver; lesion: hepatocellular adenoma; dosed 59 weeks; study length 59 weeks
attribute_measured: TD50

Read off the recorded TD50 for CC(C)(Oc1ccc(C2CCCc3ccccc32)cc1)C(=O)O (stereo unspecified) 48 mg/kg/day

Data credit: PubChem BioAssay AID1745844
